Data origin, for the record: patent US20250136606A1

# Target: TRPML3 (Homo sapiens)
# Construct: expressed in transfected cells
# Sequence (Q8TDD5 1-553): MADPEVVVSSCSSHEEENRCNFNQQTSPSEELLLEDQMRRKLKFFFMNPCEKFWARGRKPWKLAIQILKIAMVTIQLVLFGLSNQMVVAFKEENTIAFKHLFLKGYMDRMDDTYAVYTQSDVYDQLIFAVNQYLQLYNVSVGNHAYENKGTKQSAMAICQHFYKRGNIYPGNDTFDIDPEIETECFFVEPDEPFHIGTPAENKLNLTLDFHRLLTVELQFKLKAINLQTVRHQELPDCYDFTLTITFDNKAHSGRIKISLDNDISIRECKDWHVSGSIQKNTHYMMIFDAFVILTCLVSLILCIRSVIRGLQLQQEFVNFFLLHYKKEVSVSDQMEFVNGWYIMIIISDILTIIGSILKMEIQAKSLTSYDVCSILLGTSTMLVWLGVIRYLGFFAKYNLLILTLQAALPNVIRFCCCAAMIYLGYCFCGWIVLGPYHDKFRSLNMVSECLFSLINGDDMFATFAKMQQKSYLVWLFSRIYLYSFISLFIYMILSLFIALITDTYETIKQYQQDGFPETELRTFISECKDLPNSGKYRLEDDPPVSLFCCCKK
# Assay Remarks: Fluorescent TRPML3 assay (performed as for TRPML1, substituting the TRPML3 subtype)
# Format: cell-based
# Setup Conditions: fluorescent calcium assay
Metric Name: EC50

Field: example entries. Status: answers known.
* C[C@@H]1CN(C(=O)OC(C)(C)C)CCN1c1ncnc2c1c(C1CC1)cn2-c1cccc(C#N)c1 [Compound 199] | 100 to 500 nM
* C[C@H]1CN(C(=O)OC(C)(C)C)CCN1c1nccc2c1c(-c1ccccc1F)cn2-c1cc(C#N)ccn1 [Compound 449] | < 100 nM
* C[C@@H]1CN(c2ncnc3c2c(C2CC2)cn3-c2cc(F)cc(F)c2)[C@@H](C)CN1C(=O)OC(C)(C)C [Compound 232] | < 100 nM
* C[C@H]1CN(C(=O)OC(C)(C)C)CCN1c1ncnc2c1c(C1CC1)cn2C1CCCOC1 (stereo partly shown) [Compound 345] | 500 to 2000 nM
* Cc1nccnc1-c1cn(-c2cc(C#N)ccn2)c2ncnc(N3CCN(C(=O)OC(C)(C)C)C[C@@H]3C)c12 [Compound 319] | 100 to 500 nM

For each of the compounds below, note its EC50.
1. C[C@@H]1CN(c2ncnc3c2c(C2CC2)cn3-c2cc(F)c(F)c(F)c2)CCN1C(=O)OC(C)(C)C [Compound 204]
2. C[C@@H]1CN(c2ncnc3c2c(-c2ccccc2F)cn3-c2cnn(C)c2)[C@@H](C)CN1C(=O)OC(C)(C)CF [Compound 185]

Marked response:
["< 100 nM", "< 100 nM"]
